growth inhibition: recorded values
- PROTOCOL NOTES: NCI Yeast Anticancer Drug Screen. Data for the rad50 strain (AID 155);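 further: 0% = growth of vehicle-only cultures of the same strain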
- ASSAY CONDITIONS: S. cerevisiae rad50 strain growth inhibition; at 50.0 µM; stronger effect = higher value
About 79,000 compounds went through this panel and 15% of them were active in at least one assay; those are over-represented in the sample as a whole.
Numbers only here, please. The scale is %.

- MOLECULE: "NC(=O)C1CC(I)C2CC1C(=O)O2 (stereo not given)"
  DISPLAY UNIT: "%"
  REPORTED VALUE: 1.45

Give the measured growth inhibition of CCOC(=O)c1c(C(F)(F)F)oc2c1ccc1nc3nonc3nc12 .
43.6

Entry under review: Cc1ccccc1C(=O)OCCBr . Reported growth inhibition?
10.3

Form field: reported growth inhibition of CCOC(=O)c1ccc(OCC)cc1O
2.25

Which growth inhibition is reported for this molecule? c1ccc(-c2ccc[n+](C[n+]3cccc(-c4ccccn4)c3)c2)nc1
10.2

###

# growth inhibition per record follows
- PROTOCOL NOTES: NCI Yeast Anticancer Drug Screen. Data for the rad50 strain (AID 155);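 further: 0% = growth of vehicle-only cultures of the same strain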
- ASSAY CONDITIONS: S. cerevisiae rad50 strain growth inhibition; at 50.0 µM; stronger effect = higher value
The panel holds about 79,000 compounds, 15% with a hit somewhere; the sample as a whole holds those more often.
Numeric answer only, unit % assumed.

Reference set, count: 5
- MOLECULE: "O=C1CCCC(=O)N1CCCO"
  REPORTED VALUE: 10.1
- MOLECULE: "N#CCCN(CCC#N)C(=O)Nc1cccc2ccccc12"
  REPORTED VALUE: 10.2
- MOLECULE: "COC(=O)C(C(=O)C(=O)Nc1ccc([N+](=O)[O-])cc1[N+](=O)[O-])c1nc2ccc(Cl)cc2[nH]c1=O (stereo not drawn)"
  REPORTED VALUE: 10.2
- MOLECULE: "COC(=O)CC(NC(=O)OCc1ccccc1)C(=O)NC(COC(C)=O)C(=O)NCC(=O)OCc1ccccc1 (stereo not drawn)"
  REPORTED VALUE: 28.4
- MOLECULE: "COc1ccc2cc3n(c2c1)CCc1cc(OC)c(OC)cc1-3"
  REPORTED VALUE: 13.6

Consider the molecule O=c1[nH]c2cc(Cl)ccc2nc1/C=C(\O)c1ccc([N+](=O)[O-])cc1 and give its measured growth inhibition.
25.6

Which growth inhibition reading was recorded for the molecule CCCC(CCC)(C(=O)OCC)C(=O)OCC ?
1.45

Fill in the blank: the reported growth inhibition of Cc1cc(=O)n(NC(N)=O)c(C)c1C(=O)O is ____.
-0.8

###

growth inhibition for assorted compounds
- PROTOCOL NOTES: NCI Yeast Anticancer Drug Screen. Data for the rad50 strain (AID 155);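 further: 0% = growth of vehicle-only cultures of the same strain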
- ASSAY CONDITIONS: S. cerevisiae rad50 strain growth inhibition; at 50.0 µM; stronger effect = higher value
About 79,000 compounds went through this panel and 15% of them were active in at least one assay; those are over-represented in the sample as a whole.
Enter your answer as a number in %; do not include the unit.

Examples from the recorded data:
- COMPOUND: "N#CCCC(C(=O)O)C(=O)CN1C(=O)c2ccccc2C1=O (configuration not stated)"
  growth inhibition [%]: 5.15
- COMPOUND: "CC(C)(C)c1ccn[nH]1.CC(C)(C)c1ccn[nH]1.[Cl-].[Cl-].[O]=[V][O-]"
  growth inhibition [%]: 0.9
- COMPOUND: "COc1ccc2[nH]c3c4c(c5cc(C(C)(C)C)ccc5c3c2c1)C(=O)N(c1ccccc1)C4=O"
  growth inhibition [%]: -12.8
- COMPOUND: "Cc1[nH]c(=O)[nH]c(=O)c1/C=C/C(=O)NC(CO)CSC(C)C (configuration not stated)"
  growth inhibition [%]: -2
- COMPOUND: "CCCCCCCCCCCCOC(=S)CCl"
  growth inhibition [%]: -10.9

API: the following record is the query input.
Quick check: growth inhibition of Cc1cc(Cl)nc(/N=C(\N)Nc2ccc(Cl)c(Cl)c2)n1 ?
-1.95

###

- PROTOCOL NOTES: NCI Yeast Anticancer Drug Screen. Data for the mlh1 rad18 strain (AID 175)
- ASSAY CONDITIONS: S. cerevisiae mlh1 rad18 strain growth inhibition; at 50.0 µM; stronger effect = higher value
The panel holds about 79,000 compounds, 15% with a hit somewhere; the sample as a whole holds those more often. Calls of active or inactive are those of the source. Rule as the data show it: active = growth inhibition above about 70%; inactive = the rest.
METRIC: growth inhibition

Can you look up the measured growth inhibition of Cn1c(=O)c2c(-c3ccccc3)cc(-c3ccccc3)nc2n(C)c1=O for me?
-21.4% (inactive)

I have this compound here, c1ccc(CCCOCCCc2ccccc2)cc1 , and I need its recorded growth inhibition.
22.4% (inactive)

// growth inhibition lookup, key: COc1ccccc1C(O)(c1ccccc1OC)C1(O)CCN(C)CC1
-10.4% (inactive)

Can you share its growth inhibition? I mean this compound: O=c1[nH]cnc2c(COCCO)c[nH]c12
-20.9% (inactive)

# growth inhibition lookup, item O=c1c2c([nH]c3c1ccc1[nH]c4c(c(=O)c13)CCCC4)CCCC2
-2.3% (inactive)

Endpoint output: growth inhibition of Cc1ccc2nc(-c3ccc4nc(-c5ccc(N=Nc6ccc(-c7nc8ccc(-c9nc%10ccc(C)c(S(=O)(=O)O)c%10s9)cc8s7)cc6)cc5)sc4c3)sc2c1S(=O)(=O)O . Value?
-26.9% (inactive)

Which growth inhibition value is on record for C/C(=N/NS(=O)(=O)c1ccc(N)cc1)c1ccccc1 ?
-17.8% (inactive)

Find the recorded growth inhibition belonging to CC1(C)N=C(c2ccccc2)SC1(C)C and report it.
-36.5% (inactive)

Name the reported growth inhibition value associated with the compound C=CCNC(=S)Nc1cccc(OC(=O)NC2CCCCC2)c1
-4.7% (inactive)

###

# maps each entry to its growth inhibition
- PROTOCOL NOTES: NCI Yeast Anticancer Drug Screen. Data for the bub3 strain (AID 167)
- ASSAY CONDITIONS: S. cerevisiae bub3 mutant strain, at 50.0 µM, stronger effect = higher value
About 79,000 compounds went through this panel and 15% of them were active in at least one assay; those are over-represented in the sample as a whole.
Quick note: give the figure in %, leave out the unit.

Worked cases, answers included:
- COMPOUND: "C=CC1ON(C)CCc2cc(OC)c(OC)cc21 (stereo unspecified)"
  METRIC: "growth inhibition"
  DISPLAY UNIT: "%"
  REPORTED VALUE: -1.8
- COMPOUND: "COc1cc2c(cc1OC)NC(C)=CC(C)=N2"
  METRIC: "growth inhibition"
  DISPLAY UNIT: "%"
  REPORTED VALUE: 25.7
- COMPOUND: "CN(C)B(B(N(C)C)N(C)C)N(C)C"
  METRIC: "growth inhibition"
  DISPLAY UNIT: "%"
  REPORTED VALUE: 13.8

Sample CCOC(=O)CC(C)C(Br)(C(=O)OCC)C(=O)OCC (stereo unspecified) — what was its growth inhibition?
93.4

Which value of growth inhibition has been reported for COc1nc(N=P(c2ccccc2)(c2ccccc2)c2ccccc2)cc(=O)[nH]1 in the records?
21.9

growth inhibition lookup needed for O=C1C=C(Nc2nc(O)cc(=O)[nH]2)c2ccccc2C1=O , thanks.
-0.4

Given O.O.O=c1[nH]cc(CO)c(=O)[nH]1.[NH2-].[NH2-].[Pt+2] , state its recorded growth inhibition.
0.45

If you can, please state the reported growth inhibition value of Cc1ccc(NC(=O)C(=O)Cc2cccc[n+]2[O-])cc1C .
9.05

Report growth inhibition for CC(=O)N/N=C/c1ccc([N+](=O)[O-])s1 please.
3.55

Name the reported growth inhibition value associated with the compound Cc1ccc(C(=O)CC2=NC3NN(c4ccccc4)C(=O)C3=C2CC(=O)c2ccc(C)cc2)cc1 (stereo unspecified)
-9.05

Query (compound): C[n+]1ccc(CCC(=O)Nc2ccccc2)cc1 ; field requested: growth inhibition
25.6

Which value of growth inhibition has been reported for CCCCC(O)c1ccc[n+]([O-])c1 (stereo unspecified) in the records?
-3.4

###

- PROTOCOL NOTES: NCI Yeast Anticancer Drug Screen. Data for the cln2 rad14 strain (AID 165);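 further: 0% = growth equal to vehicle treated cultures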
- ASSAY CONDITIONS: S. cerevisiae cln2 rad14 strain, at 50.0 µM, stronger effect = higher value
About 79,000 compounds went through this panel and 15% of them were active in at least one assay; those are over-represented in the sample as a whole.
// growth inhibition lookup, one value per entry
Number in %, nothing else.

- COMPOUND: "Cc1cccc(N2CC3CC4C=CC3(C2)O4)c1 (stereo not given)"
  growth inhibition [%]: -15.2

Would you mind telling me what growth inhibition value was observed for CCOC(=O)C(C)N1CCCCCCC1 (stereo not given) ?
-26.2

I would be grateful if you could share the reported growth inhibition for C/C(=N/Nc1ccc([N+](=O)[O-])cc1[N+](=O)[O-])C1CC2CCC1C2 (stereo not given) .
-4.3

What value of measured growth inhibition is listed for NC(=S)N/N=C(\Cc1nc2ccc(Cl)cc2[nH]c1=O)C(=O)Nc1ccc(Cl)cc1 ?
-10.2

Item C=C(C)C(=O)OCCN(CC)CC has what recorded growth inhibition?
23.6

Consider the compound CCOC1(OCC)CS(=O)(=O)C1c1ccccc1 (stereo not given) and give its measured growth inhibition.
-26.2

Query: growth inhibition; subject: O=C(O)c1cc(-c2ccc(-c3ccccc3)cc2)nc2cc3ccccc3cc12
-20.6

# query: growth inhibition of entry c1ccc(-c2coc(-c3ccccc3)c2)cc1
-12.2

So what does the record say about growth inhibition for COC(=O)C1(C2CCc3cc(OC)ccc3C2=O)NC(=S)NC(=O)C1C#N (stereo not given) ?
-4.05

Please give the measured growth inhibition for this compound: Cc1ccc(S(=O)(=O)NN=C2CCCCCC2)cc1
-24.9

Entry source: PubChem BioAssay (NCI)
